Numbers sourced from ChEMBL document CHEMBL1148761.

// reported IC50 per item
- assay: cells
- Type: functional, cell-based
- cond: Homo sapiens, WM 266-4
- Description: Cytotoxicity against human WM 266-4 cells
readoutLabel: IC50 (nM)

- chemSmiles: "O=C(/C=C/c1cccc(C(=O)c2cc3ccccc3[nH]2)c1)NO"
  reported: 310
- chemSmiles: "O=C(/C=C/c1cccc(C(=O)c2cc3ccccc3o2)c1)NO"
  reported: 310

---

- assay: Cytotoxicity against human Hec-1-A cells
- Assay type: functional, cell-based
readoutLabel: IC50

- chemSmiles: "O=C(/C=C/c1cccc(C(=O)c2cc3ccccc3[nH]2)c1)NO"
  reported: "620 nM"
- chemSmiles: "O=C(/C=C/c1cccc(C(=O)c2cc3ccccc3o2)c1)NO"
  reported: "470 nM"

---

- System: HeLa
- assay: Cytotoxicity against HeLa cells
- Format: functional, cell-based
- cond: Homo sapiens
// reported IC50 per item

- chemSmiles: "O=C(/C=C/c1cccc(C(=O)c2cc3ccccc3n2S(=O)(=O)c2ccccc2)c1)NO"
  systemName: "HeLa"
  IC50 / µM: 1.73
- chemSmiles: "O=C(/C=C/c1ccc(C(=O)c2cc3ccccc3o2)cc1)NO"
  systemName: "HeLa"
  IC50 / µM: 2.6
- chemSmiles: "O=C(/C=C/c1cccc(C(=O)c2cc3ccccc3[nH]2)c1)NO"
  systemName: "HeLa"
  IC50 / µM: 0.85
- chemSmiles: "COc1cccc(C(=O)c2cc3cc(/C=C/C(=O)NO)ccc3o2)c1"
  systemName: "HeLa"
  IC50 / µM: 4.11
- chemSmiles: "O=C(/C=C/c1ccc2[nH]c(C(=O)c3ccccc3)cc2c1)NO"
  systemName: "HeLa"
  IC50 / µM: 3.97
- chemSmiles: "O=C(/C=C/c1ccc(C(=O)c2cc3ccccc3[nH]2)cc1)NO"
  systemName: "HeLa"
  IC50 / µM: 4.75
- chemSmiles: "O=C(/C=C/c1ccc2oc(C(=O)c3ccccc3)cc2c1)NO"
  systemName: "HeLa"
  IC50 / µM: 5.61
